What pIC50 was measured for each of the following?
- run-description: Inhibition of soybean 15-lipoxygenase
- Design: species or system Glycine max
Reminder that pIC50 means the negative base-10 logarithm of the concentration expressed in mol/L.

Prompt line: Any idea what its pIC50 is? The compound is `Cc1nc(N2CCCC2)nc2c1Nc1ccccc1S2`
Response line: 4.32

Prompt line: And what about the compound `CCN1CCN(c2nc(C)c3c(n2)Sc2ccccc2N3)CC1` ?
Response line: 4.47

Prompt line: And what about the compound `Cc1nc(N2CCN(C)CC2)nc2c1Nc1ccccc1S2` ?
Response line: 4.74

Prompt line: And what about the compound `Cc1nc(N2CCC(C)CC2)nc2c1Nc1ccccc1S2` ?
Response line: 4.12

Prompt line: And what about the compound `Cc1nc(N2CCOCC2)nc2c1Nc1ccccc1S2` ?
Response line: 4.28

Prompt line: And what about the compound `Cc1nc(N2CCCCC2)nc2c1Nc1ccccc1S2` ?
Response line: 4.24

---

- run-description: Partition co-efficient, log P of the compound
- Format: physicochemical
- protocol-conditions: octanol/water
Values of logP strictly less than 2 map to condition met, and values of at least 2 map to condition not met.

Prompt line: For `Cc1nc(N2CCOCC2)nc2c1Nc1ccccc1S2` , is the recorded logP below the cut-off of 2?
Response line: condition met

Prompt line: And what about the molecule `Cc1nc(N2CCN(c3ccccc3)CC2)nc2c1Nc1ccccc1S2` ?
Response line: condition not met

Prompt line: And what about the molecule `CCN1CCN(c2nc(C)c3c(n2)Sc2ccccc2N3)CC1` ?
Response line: condition not met

Prompt line: And what about the molecule `Cc1nc(N2CCCC2)nc2c1Nc1ccccc1S2` ?
Response line: condition not met

Prompt line: And what about the molecule `Cc1nc(N2CCCCC2)nc2c1Nc1ccccc1S2` ?
Response line: condition not met

Prompt line: And what about the molecule `Cc1nc(N2CCC(C)CC2)nc2c1Nc1ccccc1S2` ?
Response line: condition not met
